Reported inhibition at 50 µM values are given for each entry in this list.
target: Epidermal Growth Factor Receptor (EGFR), extracellular domain (EGFR-ECD) (Homo sapiens); construct: full-length EGFR in DiscoverX PathHunter enzyme-complementation cells, EGF-stimulated; assay: cell-based; parameters: DiscoverX PathHunter EGFR dimerization/activation assay, chemiluminescence
Sequence (P00533 25-1210): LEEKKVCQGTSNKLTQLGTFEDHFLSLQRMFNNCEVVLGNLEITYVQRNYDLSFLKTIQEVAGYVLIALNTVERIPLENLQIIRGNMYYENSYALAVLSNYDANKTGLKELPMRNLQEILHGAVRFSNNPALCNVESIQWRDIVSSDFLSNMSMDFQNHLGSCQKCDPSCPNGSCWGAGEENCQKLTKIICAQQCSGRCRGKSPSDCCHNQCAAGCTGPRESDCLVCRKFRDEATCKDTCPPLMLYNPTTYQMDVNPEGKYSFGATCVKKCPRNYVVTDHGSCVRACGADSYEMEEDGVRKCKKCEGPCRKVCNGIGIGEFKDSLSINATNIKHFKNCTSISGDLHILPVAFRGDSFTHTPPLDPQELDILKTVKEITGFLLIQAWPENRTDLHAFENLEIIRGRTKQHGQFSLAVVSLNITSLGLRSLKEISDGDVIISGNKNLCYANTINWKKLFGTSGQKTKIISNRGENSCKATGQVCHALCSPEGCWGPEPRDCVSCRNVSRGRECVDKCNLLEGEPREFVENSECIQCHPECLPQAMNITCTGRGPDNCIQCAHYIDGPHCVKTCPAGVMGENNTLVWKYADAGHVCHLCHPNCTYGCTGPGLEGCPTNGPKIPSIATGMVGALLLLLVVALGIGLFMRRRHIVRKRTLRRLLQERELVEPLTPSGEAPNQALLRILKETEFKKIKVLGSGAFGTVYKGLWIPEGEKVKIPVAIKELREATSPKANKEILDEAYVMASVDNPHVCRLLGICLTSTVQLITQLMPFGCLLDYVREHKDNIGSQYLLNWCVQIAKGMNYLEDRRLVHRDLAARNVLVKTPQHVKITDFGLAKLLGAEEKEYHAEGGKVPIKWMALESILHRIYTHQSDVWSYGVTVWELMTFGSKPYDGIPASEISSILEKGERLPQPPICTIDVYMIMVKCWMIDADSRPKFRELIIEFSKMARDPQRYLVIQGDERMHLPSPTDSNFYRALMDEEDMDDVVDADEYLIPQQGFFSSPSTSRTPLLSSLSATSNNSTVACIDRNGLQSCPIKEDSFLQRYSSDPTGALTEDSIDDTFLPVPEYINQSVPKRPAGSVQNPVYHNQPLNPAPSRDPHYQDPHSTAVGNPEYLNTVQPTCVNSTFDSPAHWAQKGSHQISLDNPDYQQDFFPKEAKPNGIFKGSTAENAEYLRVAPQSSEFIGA
Field: numeric (%). Do not append units.

O=C(CN1CCOCC1)Nc1ccc(NC(=O)CN2CCOCC2)c2c1C(=O)c1ccccc1C2=O | 38
C=CCOc1cccc2c1C(=O)c1cccc(OCC=C)c1C2=O | 0
Nc1cccc(-c2cc(-c3ccc(C(=O)O)cc3)ncn2)c1 | 8
COc1ccc(OC)c(/N=C2/C(=O)Nc3ccc(Br)cc32)c1 | 41
O=C(NC(=O)c1ccccc1[N+](=O)[O-])Nc1cccc(Oc2ncc(Cl)cn2)c1 | 5

Field request: inhibition at 50 µM | item: "CS(=O)(=O)Nc1ccc(NC(=O)c2ccc3c(c2)C(=O)c2c(NCCOCCN)ccc(NCCOCCN)c2C3=O)cc1"
48

Field request: inhibition at 50 µM | item: "O=C(O)c1cccc2cc3c(C(=O)O)cccc3cc12"
1

Field request: inhibition at 50 µM | item: "COc1cccc(Nc2ccc3cc(-c4cccs4)c(=O)oc3n2)c1"
19

Field request: inhibition at 50 µM | item: "O=C(O)Cc1ccc(/N=C2/C(=O)Nc3ccc(Br)cc32)cc1"
56

Field request: inhibition at 50 µM | item: "CCOC(=O)c1ccc(NS(=O)(=O)c2ccc(Cl)cc2[N+](=O)[O-])cc1"
36

Field request: inhibition at 50 µM | item: "Cc1c(CC(=O)Nc2cccc(O)c2)c(=O)oc2c(C)c3oc4c(c3cc12)CCCC4"
32

Field request: inhibition at 50 µM | item: "COc1cccc(Nc2nc(N(C)C)c3cc(-c4c(Cl)cccc4Cl)c(=O)oc3n2)c1"
12

Field request: inhibition at 50 µM | item: "COc1cccc(Nc2nc(O)c3cc(-c4c(Cl)cccc4Cl)c(=O)oc3n2)c1"
0

Field request: inhibition at 50 µM | item: "Cc1oc2c(C)c3oc(=O)c(CC(=O)NCc4ccccc4Cl)c(C)c3cc2c1C"
46

Field request: inhibition at 50 µM | item: "COc1ccc2c(C)c(CCC(=O)Nc3ccc(C(=O)O)cc3)c(=O)oc2c1"
0

Field request: inhibition at 50 µM | item: "COc1cccc(Nc2ncc(C(=O)O)c(O)n2)c1"
5

Field request: inhibition at 50 µM | item: "O=C(O)c1ccc(NS(=O)(=O)c2ccc(Cl)cc2[N+](=O)[O-])cc1O"
36

Field request: inhibition at 50 µM | item: "c1ccc2c(CN3CCOCC3)c3ccccc3c(CN3CCOCC3)c2c1"
27

Field request: inhibition at 50 µM | item: "O=C(NCc1ccccc1)c1ccc(-c2ccc(-c3ccccc3)cc2O)cc1"
0
